Let's look at some binders and their measured binding affinity ratio (IC50 of standard peptide / IC50 of test peptide).
System tested: HLA-A*3301 (human)
Method notes: inhibition of 125I-labelled standard peptide binding to purified HLA
Metric name: binding affinity ratio (IC50 of standard peptide / IC50 of test peptide)

                                     binder  reading
0  NLNVSIPWTHK (modifications not checked) [HBV POL 45 peptide …]  -0.0023
1  NSVVLSRK (modifications not checked) [HBV POL 738 peptide NSVVLSRK]  -0.0009
2  PLSYQHFR (modifications not checked) [HBV POL 2 peptide PLSYQHFR]  -0.0009
3  PLTVNEKR (modifications not checked) [HBV POL 98 peptide PLTVNEKR]  -0.0009
4  PLTVNEKRR (modifications not checked) [HBV POL 98 peptide …]   0.0027
5  PARDVLCLR (modifications not checked) [HBV X 11 peptide …]    0.018

Measured values drawn from patent US20070059799A1 for this set.
